# test-method-notes: folding stability dG unfold (combined trypsin and chymotrypsin); higher = more stable
Decide by folding stability dG unfold: equal to or exceeding 2 kcal/mol means t, less means f.

1) SAGGSAGGSTPPLTTETEAVIEIEGGLYSVKVTQLPPDETLMTIPANGMIIRETPDKIEIRPESAGGSAGGS [r12_737_JUSTAS] = f
2) SAGGSAGGSMVLIEIYFKGPEKPIVFPAEGPEEVVEKLLELVEENPELGLDNIAEIRAYPGEESAGGSAGGS [r12_852_TrMRF] = f
3) SAGGMKPGEKTIRLLLKLPPGEELTPEQVEELAKRLAEELREKGYEVEVEVVERDGELYVLVEVRFPESAGG [r13_442_TrROS_Hall] = t
4) GKYYLVNIVVVNEDNKSLVFPKVFPENDPEKVLEEIKKLLEELGFKAKKLITVFEKLPDGNVLVNAVVEVGS [r1_281_TrMRF] = t
5) SAGGMKVTEEPDATIVEVPLPDRKLTLTITRDGPGVTVTVTEDGEVLKTIPTDGPAEEAIAAAIAALSAGGS [r8_276_JUSTAS] = f
6) SAGGSAGGMELVSEERLPDGSRRFTVRVDPDKSLSLTLPDAGEPVAATVTETFPEEGLVTVELASAGGSAGG [r6_177_JUSTAS] = f
7) SAEVRPDEVLRIEVRLRVGDVEFTAEAEIPAGLSEEEIREAVERIREEAERLAERLRRLPPLRPPEELLSAG [r14_70_TrMRF] = t
8) SAGGSAMKTSLSRSTSTDPSDPNVTYKTTTTFLPDNTVLTNTTTTTRVGSSDVTTTTTTTTPIPAASAGGSA [r15_553_JUSTAS] = f
9) SAGGSAGGSGKIPKLIKEIGIPYEVKSIKVTTGKDDKPTVEIEFLPDVPEEDREKIKKAIEEESAGGSAGGS [r12_352_TrMRF] = f
10) SAGGSAKKIKIFSLEELRERFPDLSEEELKKRAEELAKELAERLKEEGKPVEVEIVEVKLPEEEKKSAGGSA [r15_287_TrROS_Hall] = f
11) SAGGSAGGSGYLSQERPVTIKLPNGEVVEVDGVVRESPESDVVTVEIPETGQTIEVPKANVVESAGGSAGGS [r12_772_JUSTAS] = f
12) SAGGSPPLPLKITKITDTRYERNPDGQGWVKIEIRLPENGKPITIPVQADSPEQAEYAVKEALKKFSAGGSA [r2_248_TrROS] = f
13) SAGGMTPEEKEEIAKKFAEELLKKLKEGDPNVKVETEVDPEKGVVKIKVINLNTKKPKTIEIPFSELASAGG [r13_354_TrMRF] = f
14) SAGGSAGGMKEGETRTITFWANVKPGDLEKIANHMMKFGWPIKKVDIKRHPENGMVRVSITIRKSAGGSAGG [r6_514_TrROS] = t
15) SAGGSAGGSAGGISPSANVKLVAVDPERGLVVAVAKDPNSGSVSVVVFDANGNSSILPASAGGSAGGSAGGS [r10_450_TrMRF] = f
16) SAGGSAGGSMLVLHLPNGKEIPIPPGEFSEDTGVEDIAARIPPEVRRLRIYNEDGTEVEVPIDSAGGSAGGS [r20_161_TrMRF] = f
17) SAGGPKKAIEILKKEGFTIKSVDPKKKKVIATPKETDIPIEIYVIGDDKVLIVEYLKGKPIIKEFKKSAGGS [r16_197_TrMRF] = f
18) SAGGSAGGSAGSVEEIESPDGTKTLVTKEPDSIKTTVTKPGGIPTLVTIDSKTGKWSVSLSAGGSAGGSAGG [r11_590_JUSTAS] = f
19) SAGGSAGGSMKITVEKDENGNYRVTVTLTVNGKEIKLTVTVPKNTTPEEVKKKAEELAKELLKSAGGSAGGS [r12_69_TrROS_Hall] = t
20) SAGGKVFTPEHLEELLKNVPADDPNATLTVTVEVPVVVLPTTDGDDNPLPAAAAPATVTLPITVLPASAGGS [r16_708_TrMRF] = f
21) SAGGMITATFTIDLGAGPVTFTFDITDIETALEKIKEYLKSQGIDAKLVSVSVDPANGTVPMKLSVPPSAGG [r13_567_JUSTAS] = f
22) SAGGSAGGPVTVVPVVTPADVPVLTTPGGAPARPASRPDLVRPVASTVTVTITPAPAAPTVTVLSAGGSAGG [r6_537_JUSTAS] = f
23) SAGGSAGGMKITITFPDGTKKEIEVESEEELLEAIKKLAEELGLEKEVTVTVEYNGKTYTITLKSAGGSAGG [r6_531_TrROS_Hall] = t
24) SAGEIKIEIKKNKNGKLTIRITVKKKDGEEKEIEIEVPENMTAEELAKELEKKGFEITEIKSIEELLKSAGG [r19_263_TrROS_Hall] = t
25) SKPETVTFPFNIPLKDMPLEDIKEEAKEWLRNFGYKVEKPEITPEMLKLLKDMPPGQEIPITITIKVEPKSA [r9_1163_TrROS] = f
26) SAGGSAGGMNPTVTPVEVDVGDKPLTVFLFGDGTALVLFPDGGLAGAPVGTPDDRPVNLAIIGPSAGGSAGG [r6_239_TrMRF] = f
27) SAMRILIEFDSPEEAEEALRKLVEEAGLVLEEIKVEIAPAKVTTTTPDGKKVTKTKYFALAEIKLSKKESAG [r14_773_TrMRF] = t

Every entry's value here was drawn from the supplement of paper PMC12764529.
